Tested on: E. coli TESEC Mtb Alr
Assay: growth (OD600 after 10 h); higher = more growth (less inhibition)
Conditions: arabinose 1000000 nM; compound 0.1 mM; raw OD600 reference: median of DMSO wells 0.193, cell-free background 0.041
Counter-ions that a name gives are not always drawn.
Below, each entry is listed alongside its reported growth.
assay-metric: growth

compound	measured-result
COc1cc(N)c(Cl)cc1C(=O)NC1CCN(CCCOc2ccc(F)cc2)CC1OC (stereo unspecified) [Cisapride]	0.155
CCn1cc(C(=O)O)c(=O)c2cc(F)c(N3CCNCC3)cc21 [Norfloxacin]	0.0398
COc1ccc(NS(=O)(=O)c2ccc(N)cc2)nn1 [Sulfamethoxypyridazine]	0.181
CC(=O)O[C@]1(C(C)=O)CC[C@H]2[C@@H]3C=C(Cl)C4=CC(=O)CC[C@]4(C)[C@H]3CC[C@@]21C [Chlormadinone acetate]	0.0653
CC(=O)Oc1cc(C(F)(F)F)ccc1C(=O)O [Triflusal]	0.177
CCOc1ccccc1OC(c1ccccc1)C1CNCCO1 (stereo unspecified) [Reboxetine mesylate]	0.15

* * *

Test system: E. coli TESEC Mtb Alr
Experiment: growth (OD600 after 10 h); higher = more growth (less inhibition)
Details: arabinose 10000000 nM; compound 0.1 mM; raw OD600 reference: median of DMSO wells 0.146, cell-free background 0.041
Structures can show the parent of a compound that is named as a salt.
Below, each entry is listed alongside its reported growth.

compound	growth
Cc1ccc2c(c1)c1c3n2CCNC3CCC1 (stereo not given) [Pirlindole mesylate]	0.165
CC(C)Cc1ccc([C@H](C)C(=O)O)cc1 [S-(+)-ibuprofen]	0.129
OC(CCN1CCCC1)(c1ccccc1)C1CCCCC1 (stereo not given) [Procyclidine hydrochloride]	0.148
CC(C)N1CCN(c2ccc(OCC3COC(Cn4cncn4)(c4ccc(Cl)cc4Cl)O3)cc2)CC1 (stereo not given)	0.154
Nc1c2c(nc3ccccc13)CCCC2O (racemic) [Hydroxytacrine maleate (R,S)]	0.144
CNCCCC1c2ccccc2C=Cc2ccccc21 [Protriptyline hydrochloride]	0.137
CCOC(=O)C1=C(C)NC(C)=C(C(=O)OC)C1c1cccc([N+](=O)[O-])c1 (stereo not given)	0.15
CCN1CCN(C(=O)N[C@@H](C(=O)N[C@@H]2C(=O)N3[C@@H]2SC(C)(C)[C@@H]3C(=O)O)c2ccccc2)C(=O)C1=O [Piperacillin sodium salt]	0.133
CC(C)(C)NC(=O)[C@H]1CC[C@H]2[C@@H]3CC[C@H]4NC(=O)C=C[C@]4(C)[C@H]3CC[C@]12C [Finasteride]	0.144
c1ccc2[nH]c(-c3cscn3)nc2c1	0.15
CC/C(=C(/CC)c1ccc(O)cc1)c1ccc(O)cc1	0.0457
COC(=O)C1=C(C)NC(C)=C(C(=O)OC(C)C)C1c1cccc2nonc12 (stereo not given)	0.154
COC(=O)Nc1nc2ccc(SC(C)C)cc2[nH]1	0.151
NCCC[C@H](N)CC(=O)N[C@H]1CNC(=O)[C@H]([C@H]2C[C@H](O)NC(N)=N2)NC(=O)/C(=C/NC(N)=O)NC(=O)[C@H](CO)NC(=O)[C@H](CO)NC1=O [Viomycin sulfate]	0.143
Cc1cc(-c2ccccc2)nnc1NCCN1CCOCC1 [Minaprine dihydrochloride]	0.156
CC1=C(CC(=O)O)c2cc(F)ccc2/C1=C\c1ccc([S+](C)[O-])cc1 (stereo not given)	0.103
CCOC(=O)[C@H](CCc1ccccc1)N[C@@H](C)C(=O)N1CCC[C@H]1C(=O)O [Enalapril maleate]	0.161
N=c1nc(N2CCCCC2)cc(N)n1O	0.148
C[N+](C)(C)CCCCCC[N+](C)(C)C [Hexamethonium dibromide dihydrate]	0.138
CC(CN(C)C)CN1c2ccccc2CCc2ccccc21 (stereo not given) [Trimipramine maleate salt]	0.156
C[C@](N)(Cc1ccc(O)c(O)c1)C(=O)O	0.146
Clc1ccc(C(Cn2ccnc2)OCc2c(Cl)cccc2Cl)c(Cl)c1 (stereo not given)	0.0545
COc1cccc2c1C(=O)c1c(O)c3c(c(O)c1C2=O)C[C@@](O)(C(C)=O)C[C@@H]3O[C@H]1C[C@H](N)[C@H](O)[C@H](C)O1 [Daunorubicin hydrochloride]	0.0433
CC(=C(CCO)SSCC1CCCO1)N(C=O)Cc1cnc(C)nc1N (stereo in doubt) [Fursultiamine Hydrochloride]	0.132
CC(C)NC[C@@H](O)COc1cccc2ccccc12 [(R)-Propranolol hydrochloride]	0.142
c1ccc(-c2ccc(C(c3ccccc3)n3ccnc3)cc2)cc1 (stereo not given)	0.0504
Cc1cnc(C(=O)O)c[n+]1[O-]	0.14
CN(C)/N=N/c1[nH]cnc1C(N)=O	0.151
CS(=O)(=O)OCCCCOS(C)(=O)=O	0.139
CO/N=C(\C(=O)N[C@@H]1C(=O)N2C(C(=O)OC(C)OC(C)=O)=C(COC(N)=O)CS[C@H]12)c1ccco1 (stereo not given in full)	0.158

* * *

Tested on: E. coli TESEC Mtb Alr
Assay: growth (OD600 after 10 h); higher = more growth (less inhibition)
Settings: arabinose 10000 nM; compound 0.1 mM; raw OD600 reference: median of DMSO wells 0.264, cell-free background 0.041
Structures can show the parent of a compound that is named as a salt.
assay-metric: growth

molecule	measured-result
CCCN(CCC)S(=O)(=O)c1ccc(C(=O)O)cc1	0.261
OCCN1CCN(CCCN2c3ccccc3Sc3ccc(C(F)(F)F)cc32)CC1 [Fluphenazine dihydrochloride]	0.0391
C[C@@H]1C[C@H]2[C@@H]3C[C@H](F)C4=CC(=O)C=C[C@]4(C)[C@@]3(F)[C@@H](O)C[C@]2(C)[C@@]1(O)C(=O)COC(=O)C(C)(C)C [Flumethasone pivalate]	0.267
O=C(O)c1ccccc1OP(=O)(O)O	0.266

* * *

Below, each entry is listed alongside its reported growth.
Tested on: E. coli TESEC Mtb Alr
Experiment: growth (OD600 after 10 h); higher = more growth (less inhibition)
Conditions: arabinose 100 nM; compound 0.1 mM; raw OD600 reference: median of DMSO wells 0.413, cell-free background 0.052
Where a name gives a salt, the structure may show the parent alone.

compound	growth
CO[C@H]1C[C@H](O[C@H]2[C@H](C)[C@@H](O[C@@H]3O[C@H](C)C[C@H](N(C)C)[C@H]3OC(C)=O)[C@@H](C)C[C@@]3(CO3)C(=O)[C@H](C)[C@@H](OC(C)=O)[C@@H](C)[C@@H](C)OC(=O)[C@@H]2C)O[C@@H](C)[C@@H]1OC(C)=O [Troleandomycin]	0.112
CCCN[C@H]1CCc2nc(N)sc2C1 [Pramipexole dihydrochloride]	0.406
CC(C(O)c1ccc(O)cc1)N1CCC(Cc2ccccc2)CC1 (stereo not drawn) [Ifenprodil tartrate]	0.409

* * *

System: E. coli TESEC Mtb Alr
Experiment: growth (OD600 after 10 h); higher = more growth (less inhibition)
Details: arabinose 1000 nM; compound 0.1 mM; raw OD600 reference: median of DMSO wells 0.294, cell-free background 0.041
Structures can show the parent of a compound that is named as a salt.

compound	growth
C#C[C@]1(O)CC[C@H]2[C@@H]3CCC4=C(CCC(=O)C4)[C@H]3CC[C@@]21C [Norethynodrel]	0.142
CCCCC1C(=O)N(c2ccccc2)N(c2ccc(O)cc2)C1=O (stereo not drawn) [Oxyphenbutazone]	0.255
O=S(=O)(O)c1cc(O)ccc1O [Ethamsylate]	0.311
CO[C@@H]1[C@@H](O[C@@H]2O[C@H](C)[C@@H](O[C@H]3C[C@@](C)(O)[C@@H](OC(=O)CC(C)C)[C@H](C)O3)[C@H](N(C)C)[C@H]2O)[C@@H](CC=O)C[C@@H](C)[C@@H](O)/C=C/C=C/C[C@@H](C)OC(=O)C[C@H]1OC(C)=O [Josamycin]	0.0409
O=C(O)c1cc(=O)c2c(OCC(O)COc3cccc4oc(C(=O)O)cc(=O)c34)cccc2o1 [Cromolyn disodium salt]	0.311
CC[C@H]1OC(=O)C[C@@H](O)[C@H](C)[C@@H](O[C@@H]2O[C@H](C)[C@@H](O[C@H]3C[C@@](C)(O)[C@@H](O)[C@H](C)O3)[C@H](N(C)C)[C@H]2O)[C@@H](CC=O)C[C@@H](C)C(=O)/C=C/C(C)=C/[C@@H]1CO[C@@H]1O[C@H](C)[C@@H](O)[C@@H](OC)[C@H]1OC [Tylosin]	0.0588
Cc1cc(=O)n(-c2ccccc2)n1C [Antipyrine]	0.294
C[C@H](CS)C(=O)N1CCC[C@H]1C(=O)O [Captopril]	0.291
Cn1c(=O)c2c(ncn2CC2OCCO2)n(C)c1=O [Doxofylline]	0.302
CCc1nc(N)nc(N)c1-c1ccc(Cl)cc1 [Pyrimethamine]	0.123
O=C(O)c1cccnc1Nc1cccc(C(F)(F)F)c1 [Niflumic acid]	0.0693
COC(=O)[C@H](c1ccccc1Cl)N1CCc2sccc2C1 [Clopidogrel]	0.0873
Clc1ccc(C(Cn2ccnc2)OCc2csc3c(Cl)cccc23)c(Cl)c1 (stereo not drawn) [Sertaconazole nitrate]	0.0558
CCC(=O)OCC(=O)[C@@]1(OC(=O)CC)[C@@H](C)C[C@H]2[C@@H]3CCC4=CC(=O)C=C[C@]4(C)[C@@]3(Cl)[C@@H](O)C[C@@]21C [Beclomethasone dipropionate]	0.31
C[C@@H](O)[C@H]1C(=O)N2C(C(=O)O)=C(S[C@@H]3CN[C@H](C(=O)N(C)C)C3)[C@H](C)[C@H]12 [Meropenem]	0.0418
COC(=O)[C@H]1[C@H]2C[C@@H]3c4[nH]c5cc(OC)ccc5c4CCN3C[C@H]2C[C@@H](OC(=O)c2cc(OC)c(OC)c(OC)c2)[C@@H]1OC [Reserpine]	0.234
Cc1ccc(S(=O)(=O)NC(=O)NN2CCCCCC2)cc1 [Tolazamide]	0.293
CN(C(=O)CN(CCO)CC(=O)N(C)C(C)(C)Cc1ccccc1)C(C)(C)Cc1ccccc1 [Oxethazaine]	0.0404
